assayed.system: human DGKζ (Homo sapiens (Human), UniProt Q13574)
Sequence (Q13574 other isoform, or with tags, fused parts or gaps): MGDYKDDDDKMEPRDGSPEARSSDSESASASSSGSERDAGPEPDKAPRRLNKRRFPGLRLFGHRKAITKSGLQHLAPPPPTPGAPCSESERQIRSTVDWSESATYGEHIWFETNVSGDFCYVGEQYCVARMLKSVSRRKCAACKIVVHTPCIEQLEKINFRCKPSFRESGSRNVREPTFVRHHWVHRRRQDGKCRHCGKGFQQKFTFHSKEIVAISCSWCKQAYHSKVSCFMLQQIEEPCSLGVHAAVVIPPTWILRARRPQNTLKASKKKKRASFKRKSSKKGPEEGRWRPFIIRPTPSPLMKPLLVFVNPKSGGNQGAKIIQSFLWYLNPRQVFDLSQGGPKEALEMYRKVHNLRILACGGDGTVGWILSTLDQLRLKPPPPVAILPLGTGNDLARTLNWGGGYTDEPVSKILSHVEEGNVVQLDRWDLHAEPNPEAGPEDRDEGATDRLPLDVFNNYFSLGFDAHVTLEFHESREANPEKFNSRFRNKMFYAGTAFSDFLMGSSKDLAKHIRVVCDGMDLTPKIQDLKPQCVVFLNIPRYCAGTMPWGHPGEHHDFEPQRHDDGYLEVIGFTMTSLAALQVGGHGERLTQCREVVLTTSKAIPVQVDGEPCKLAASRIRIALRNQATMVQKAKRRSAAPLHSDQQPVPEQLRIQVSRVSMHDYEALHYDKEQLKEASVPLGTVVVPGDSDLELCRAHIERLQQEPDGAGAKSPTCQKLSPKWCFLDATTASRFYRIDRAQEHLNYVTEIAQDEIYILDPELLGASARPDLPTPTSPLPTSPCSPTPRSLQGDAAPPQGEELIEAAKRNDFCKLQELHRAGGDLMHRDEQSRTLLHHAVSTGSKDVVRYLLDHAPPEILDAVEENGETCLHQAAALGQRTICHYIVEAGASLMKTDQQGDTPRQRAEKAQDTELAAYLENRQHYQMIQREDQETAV
test.method.notes: Human DGKζ kinase activity inhibition assay (ADP-Glo)
Format: biochemical
measurement.conditions: in vitro human DGKζ kinase activity inhibition assay; read-out: IC50
pIC50: −log10 of the molar value.
readout.kind: pIC50

CC(C(N)=O)N(c1ccc(F)cc1)c1nc(N)c(C(=O)c2ccc(N3CCCCC3)nc2)s1 (racemic) [Example 283] | 7.44

[a] CC(C(N)=O)N(c1ccc(F)c(Cl)c1)c1nc(N)c(C(=O)c2ccncc2)s1 (single isomer, unassigned) [Example 160.2]
[b] CC(C(N)=O)N(c1ccc(C(F)(F)F)nc1)c1nc(N)c(C(=O)c2ccccc2)s1 (racemic) [Example 230]
Compare reported pIC50 values for a and b . Which is lower? # reply format: chosen label
a
(a: 5.07, b: 6.70)

====

assayed.system: human DGKζ (Homo sapiens (Human))
test.method.notes: Human DGKζ kinase activity inhibition assay (ADP-Glo)
Format: biochemical
measurement.conditions: in vitro human DGKζ kinase activity inhibition assay; read-out: IC50
readout.kind: IC50 (nM)

Solved entries:
CC(C(N)=O)N(c1ccc(Cl)c(F)c1)c1nc(N)c(C(=O)c2ccncc2)s1 (racemic) [Example 56] | 120
CC(C(N)=O)N(c1ccc(F)cc1)c1nc(N)c(C(=O)c2ccc(C(F)(F)F)nc2)s1 (single isomer, unassigned) [Example 29.2] | 46.2
CC(C(N)=O)N(c1ccc(F)cc1)c1nc(N)c(C(=O)c2ccc(I)cc2)s1 (racemic) | 11

[P] Cc1cc(C(=O)c2sc(N(c3ccc(F)cc3)C(C)C(N)=O)nc2N)ccn1 (single isomer, unassigned) [Example 187.1]
[Q] CC(Oc1ccc(C(=O)c2sc(N(c3ccccc3)C(C)C(N)=O)nc2N)cc1)C(N)=O (single isomer, unassigned) [Example 45.3]
[R] CCC(C(N)=O)N(c1ccc(F)cc1)c1nc(N)c(C(=O)c2ccc(OC)cc2)s1 (racemic)
Please produce an ascending ranking of these molecules based on IC50. Write the labels, ordered according to the request.
R, P, Q

====

assayed.system: human DGKζ (Homo sapiens (Human), UniProt Q13574)
test.method.notes: Human DGKζ kinase activity inhibition assay (ADP-Glo)
Format: biochemical
measurement.conditions: in vitro human DGKζ kinase activity inhibition assay; read-out: IC50
pIC50: −log10 of the molar value.
readout.kind: pIC50

Solved entries:
COc1ccc(N(c2nc(N)c(C(=O)c3ccccc3)s2)C(C)C(N)=O)cc1F (racemic) [Example 191] | 6.45
CC(C(N)=O)N(c1ccc(Cl)c(OC(F)(F)F)c1)c1nc(N)c(C(=O)c2ccccc2)s1 (racemic) [Example 236] | 6.14
Cc1cc(NC(=O)COc2ccc(C(=O)c3sc(N(c4ccc(F)cc4)C(C)C(N)=O)nc3N)cc2)on1 (racemic) [Example 112] | 6.52

[P] CC(C(N)=O)N(c1ccc(F)cc1)c1nc(N)c(C(=O)c2ccc(NC(=O)OCc3ccccc3)cc2)s1 (single isomer, unassigned) [Example 169.1]
[Q] CC(C(N)=O)N(c1ccc(F)cc1)c1nc(N)c(C(=O)c2ccc(OCC(=O)N(C)Cc3ccco3)cc2)s1 (racemic) [Example 135]
Compare reported pIC50 values for P and Q . Which is lower? # reply format: chosen label
Q

[P] CC(C(N)=O)N(c1ccc(Cl)cc1)c1nc(N)c(C(=O)c2ccncc2)s1 (racemic) [Example 57]
[Q] CC(C(N)=O)N(c1ccc(F)cc1)c1nc(N)c(C(=O)c2ccc(C(=O)NC[C@H](C)O)cc2)s1 (mixture of isomers) [Example 263]
[R] CC(Oc1ccc(C(=O)c2sc(N(c3ccccc3)C(C)C(N)=O)nc2N)cc1)C(N)=O (single isomer, unassigned) [Example 45.2]
[S] CC(C(N)=O)N(c1ccc(Cl)cc1)c1nc(N)c(C(=O)c2ccc(F)cc2)s1 (single isomer, unassigned) [Example 37.2]
[T] CC(=O)Nc1ccc(C(=O)c2sc(N(c3ccc(F)cc3)C(C)C(N)=O)nc2N)cc1 (racemic) [Example 185]
Please produce an ascending ranking of these molecules based on pIC50. Write the labels, ordered according to the request.
R, Q, T, P, S
(R: 5.05, Q: 6.27, T: 6.52, P: 6.81, S: 8.02)

[1] CC(C(N)=O)N(c1ccc(C#N)c(F)c1)c1nc(N)c(C(=O)c2ccccc2)s1 (racemic) [Example 192]
[2] CC(C(N)=O)N(c1ccc(F)c(F)c1)c1nc(N)c(C(=O)c2ccncc2)s1 (single isomer, unassigned) [Example 50.1]
[3] CC(C(N)=O)N(c1ccc(F)cc1)c1nc(N)c(C(=O)c2ccncc2)s1 (racemic) [Example 7]
[4] COc1ccc(C(=O)c2sc(N(c3ccc(F)c(F)c3)C(C)C(N)=O)nc2N)cn1 (single isomer, unassigned) [Example 52.2]
[5] CC(C(N)=O)N(c1ccc(F)cc1)c1nc(N)c(C(=O)c2ccc(OC(F)F)nc2)s1 (single isomer, unassigned) [Example 162.1]
Please produce an ascending ranking of these molecules based on pIC50. Write the labels, ordered according to the request.
4, 3, 1, 2, 5

====

assayed.system: human DGKζ (Homo sapiens (Human))
test.method.notes: Human DGKζ kinase activity inhibition assay (ADP-Glo)
Assay type: biochemical
measurement.conditions: in vitro human DGKζ kinase activity inhibition assay; read-out: IC50
readout.kind: IC50 (nM)

CC1CCCN(C(=O)COc2ccc(C(=O)c3sc(N(c4ccc(F)cc4)C(C)C(N)=O)nc3N)cc2)C1 (racemic) [Example 128] | 72.2
CC(C(N)=O)N(c1ccc(F)cc1)c1nc(N)c(C(=O)c2ccc(OCC(=O)Nc3ccc(Cl)cc3)cc2)s1 (racemic) [Example 119] | 4.54

[1] CC(C(N)=O)N(c1ccc(Cl)cc1)c1nc(N)c(C(=O)c2ccncc2)s1 (single isomer, unassigned) [Example 57.2]
[2] CC(C(N)=O)N(c1ccc(F)c(OC(F)F)c1)c1nc(N)c(C(=O)c2ccccc2)s1 (racemic) [Example 237]
[3] CC(C(N)=O)N(c1nc(N)c(C(=O)c2ccccc2)s1)c1ccc(OC(F)F)cc1F (racemic) [Example 241]
[4] CC(C(N)=O)N(c1ccc(F)cc1)c1nc(N)c(C(=O)c2ccc(NC(=O)OCc3ccccc3)nc2)s1 (racemic) [Example 256]
[5] CC(C(N)=O)N(c1ccc(F)cc1)c1nc(N)c(C(=O)c2ccc(O)cc2)s1 (racemic) [Example 157]
Sort by IC50, descending. Write the labels, ordered according to the request.
1, 2, 3, 5, 4
(1: 14600 nM, 2: 749 nM, 3: 382 nM, 5: 190 nM, 4: 9 nM)

====

assayed.system: human DGKζ (Homo sapiens (Human), UniProt Q13574)
test.method.notes: Human DGKζ kinase activity inhibition assay (ADP-Glo)
Type: biochemical
measurement.conditions: in vitro human DGKζ kinase activity inhibition assay; read-out: IC50
readout.kind: IC50 (nM)

Solved entries:
CC(C(N)=O)N(c1ccc(F)cc1)c1nc(N)c(C(=O)c2ccc(OCC(=O)N3CCC(N(C)C)CC3)cc2)s1 (racemic) | 740
CC(C(N)=O)N(c1ccc(OC(F)F)c(Cl)c1)c1nc(N)c(C(=O)c2ccc(OC(F)F)nc2)s1 (racemic) | 73
COc1ccc(C(=O)c2sc(N(c3ccc(Cl)c(F)c3)[C@H](C)C(N)=O)nc2N)cc1 | 4

[a] CC(C(N)=O)N(c1ccc(OC(F)(F)F)c(F)c1)c1nc(N)c(C(=O)c2ccncc2)s1 (racemic)
[b] CC(C(N)=O)N(c1ccc(F)cc1)c1nc(N)c(C(=O)c2ccc(Cl)cc2)s1 (single isomer, unassigned) [Example 38.1]
[c] CC(NC(=O)COc1ccc(C(=O)c2sc(N(c3ccc(F)cc3)C(C)C(N)=O)nc2N)cc1)c1ccccc1 (racemic)
[d] CC(C(N)=O)N(c1ccc(OCc2ccccc2)cc1)c1nc(N)c(C(=O)c2ccc(OC(F)F)cc2)s1 (single isomer, unassigned) [Example 182.2]
Please produce an ascending ranking of these compounds based on IC50. Write the labels, ordered according to the request.
c, a, b, d

[P] CC(C(N)=O)N(c1ccc(OC(F)(F)F)cc1)c1nc(N)c(C(=O)c2ccccc2)s1 (racemic)
[Q] Cc1cc(C(=O)c2sc(N(c3ccc(F)cc3)C(C)C(N)=O)nc2N)ccn1 (racemic) [Example 187]
Compare reported IC50 values for P and Q . Which is lower? # reply format: chosen label
P

====

assayed.system: human DGKζ (Homo sapiens (Human))
test.method.notes: Human DGKζ kinase activity inhibition assay (ADP-Glo)
Type: biochemical
measurement.conditions: in vitro human DGKζ kinase activity inhibition assay; read-out: IC50
pIC50: −log10 of the molar value.
readout.kind: pIC50

CC(C(N)=O)N(c1ccc(F)cc1)c1nc(N)c(C(=O)c2ccc(OCC(=O)NC3CCCCC3)cc2)s1 (racemic) | 7.48
CC(C(N)=O)N(c1ccc(F)cc1)c1nc(N)c(C(=O)c2ccc(OCC(=O)NC34CC5CC(CC(C5)C3)C4)cc2)s1 (single isomer, unassigned) | 7.84
CC(C(N)=O)N(c1ccc(F)cc1)c1nc(N)c(C(=O)c2ccc(NC(=O)OCc3ccccc3)cc2)s1 (single isomer, unassigned) [Example 169.2] | 6.07
CC(C(N)=O)N(c1ccc(Cl)c(F)c1)c1nc(N)c(C(=O)c2ccc(OCc3ccccc3)cc2)s1 (single isomer, unassigned) [Example 166.2] | 6.89
CC(C(N)=O)N(c1ccc(F)c(F)c1)c1nc(N)c(C(=O)c2ccc(NC(=O)OCc3ccccc3)cc2)s1 (single isomer, unassigned) [Example 167.2] | 6.52
CC(C(N)=O)N(c1ccc(Cl)c(F)c1)c1nc(N)c(C(=O)c2ccncc2)s1 (single isomer, unassigned) [Example 56.1] | 7.30

[1] CC(C(N)=O)N(c1nc(N)c(C(=O)c2ccccc2)s1)c1ccc(OC(F)F)cc1Cl (racemic)
[2] CC(C(N)=O)N(c1ccc(Cl)c(Cl)c1)c1nc(N)c(C(=O)c2ccccc2)s1 (racemic)
Compare 1 and 2 by numeric pIC50 and name the larger one. # reply format: chosen label
2

[P] CC(C)NC(=O)COc1ccc(C(=O)c2sc(N(c3ccc(F)cc3)C(C)C(N)=O)nc2N)cc1 (racemic)
[Q] CCOc1ccc(N(c2nc(N)c(C(=O)c3ccccc3)s2)C(C)C(N)=O)cc1 (racemic)
Compare P and Q by numeric pIC50 and name the larger one. # reply format: chosen label
P

[A] CC(C(N)=O)N(c1ccc(OC(F)(F)F)c(F)c1)c1nc(N)c(C(=O)c2ccc(Cl)cc2)s1 (racemic)
[B] CC(C(N)=O)N(c1ccc(Cl)cc1)c1nc(N)c(C(=O)c2ccc(F)cc2)s1 (racemic) [Example 37]
[C] CC(C(N)=O)N(c1ccc(F)cc1)c1nc(N)c(C(=O)c2ccc(NC(=O)OCc3ccccc3)cc2)s1 (racemic) [Example 169]
Sort by pIC50, descending. Write the labels, ordered according to the request.
C, B, A
(C: 8.52, B: 7.70, A: 7.19)
